# Protocol Notes: reversal of MRP1-mediated doxorubicin resistance, pilot screen, H69AR cells, doxorubicin co-treatment (AID 601)
# Assay Conditions: H69AR cells, CellTiter-Glo, 72 h; compound alone cytotoxicity; at 10 µM
Mark 1 (yes) only when viability stays strictly below 90%. Values equal to the cut-off are 0 (no).

Observe how each entry below is paired with its result.
Field: below-cutoff. Rule: recorded viability strictly less than 90%. Subject: Cc1ccc(-n2nc(C(=O)N3CCN(C)CC3)c3c4ccccc4n(C)c3c2=O)cc1
0 (no)

Field: below-cutoff. Rule: recorded viability strictly less than 90%. Subject: CN1/C(=C\C(=O)C(F)F)C(C)(C)c2ccccc21
0 (no)

Field: below-cutoff. Rule: recorded viability strictly less than 90%. Subject: CCCOC(=O)CSc1nc(N)c(C#N)c(CC)c1C#N
0 (no)

Field: below-cutoff. Rule: recorded viability strictly less than 90%. Subject: COC(=O)Nc1nnc(CCc2ccccc2)s1
0 (no)

Others:
Field: below-cutoff. Rule: recorded viability strictly less than 90%. Subject: COc1ccc(NC(=O)CCS(=O)(=O)c2ccc(OC)cc2)cc1
1 (yes)

###

Measured viability, listed per entry.
# Protocol Notes: reducers of endogenous Her2 protein level, primary screen, SKBR3 breast tumor cells, AlphaScreen, ATP viability (AID 461);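 further: percent of carrier control wells set as 100% viability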
# Assay Conditions: 18-24 h, measured here: SKBR3 viability, ATP luminescence, at 10 µM
Enter your answer as a number in %; do not include the unit.

In the examples that follow, each entry is paired with its recorded viability.
Which viability is listed for COc1ccc(C2CNC(=O)C2)cc1OC1CCCC1 (configuration not stated) ?
115

Which viability is listed for CCOC(=O)C1CCN(c2c(Nc3ccc4c(c3)OCCO4)c(=O)c2=O)CC1 ?
82.5

Which viability is listed for COc1ccc(C)cc1S(=O)(=O)Nc1cccnc1 ?
90.5

Others:
Which viability is listed for CCOC(=O)CSc1nnc([C@H](CC(C)C)NC(=O)OC(C)(C)C)o1 ?
109

Which viability is listed for O=c1n(CCCN2CCN(c3cccc(Cl)c3)CC2)nc2ccccn12 ?
81

Which viability is listed for CCN(CCO)C1CC(=O)N(c2ccccc2C)C1=O (configuration not stated) ?
95

Which viability is listed for CN(C)[C@@H]1C(=O)C(C(N)=O)=C(O)[C@@]2(O)C(=O)C3=C(O)c4c(O)ccc(Cl)c4[C@@H](O)[C@H]3C[C@@H]12 ?
140

Which viability is listed for Cn1c(SCCN2CCCCC2)nnc1-c1ccccc1Br ?
94.5

Which viability is listed for COC(=O)c1ccccc1NC(=O)c1noc2c1CCC2 ?
93

Which viability is listed for CCOC(=O)c1cccnc1SCC(=O)NC(C)CC (configuration not stated) ?
92

Which viability is listed for O=c1sc(Nc2ccccc2)nc2ccsc12 ?
96.5

Which viability is listed for COCCNC(=O)CN1CCN(C(c2ccccc2)c2ccccc2)CC1 ?
86

Which viability is listed for CC(C)N1C(=O)C2C(C(=O)NC3CCCCC3)C3C=CC2(O3)C1C(=O)NC1CCCC1 (configuration not stated) ?
94.5

###

# Protocol Notes: 384-well plate pilot, post-Golgi transport modulator project, inhibition of yeast transport mutant growth (AID 636)
# Assay Conditions: absorbance 615 nm, about 18 h, stronger effect = higher value
Measured inhibition, listed per entry.
Enter your answer as a number in %; do not include the unit.

In the examples that follow, each entry is paired with its recorded inhibition.
Which inhibition is listed for CC1=C(C(=O)Nc2ccccc2)C(c2ccco2)C(C#N)=C(SCC(=O)Nc2cccc(C)c2C)N1 (stereo unspecified) ?
-4.93

Which inhibition is listed for CCCNS(=O)(=O)c1ccc(OCC(=O)NCc2ccco2)cc1 ?
1.6

Which inhibition is listed for O=C(O)CCCC(=O)NCCc1ccncc1 ?
-1.84

Which inhibition is listed for CCc1ccccc1NC(=O)CCc1nc(-c2ccc(C)cc2)no1 ?
-4.61

Which inhibition is listed for CCOCCCNC(=O)C1CCC(=O)N1CCc1ccccc1 (stereo unspecified) ?
-3.42

Others:
Which inhibition is listed for Cc1noc(C)c1C(=O)Nc1ccc(Cl)cc1C(F)(F)F ?
-6.13

Which inhibition is listed for CCOC(=O)c1ccc(N2C(=O)CC(N3CCN(C/C=C/c4ccccc4)CC3)C2=O)cc1 (stereo unspecified) ?
-0.64

Which inhibition is listed for Cc1ccccc1-c1nc(CN2CCC(C(=O)NCCCN3CCCC3)CC2)c(C)o1 ?
1.32

Which inhibition is listed for COc1ccc(N2CCN(C(c3cccs3)C(C)NC(=O)c3ccco3)CC2)cc1 (stereo unspecified) ?
-4.53

###

# Protocol Notes: inhibitors of the yeast RAM network, pilot screen, dse1pr::URA3 reporter, 5-FOA selection (AID 869);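 further: 0% = DMSO wells with no growth and 100% = 10 µM 1-NA-PP1 with full growth; RAM network block rescues cells from 5-FOA so hits raise OD615 growth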
# Assay Conditions: S. cerevisiae dse1pr::URA3 5-FOA growth, OD615, 2 d; at 10 µM; stronger effect = higher value; strain carries analog-sensitive mutant Cbk1 kinase
Endpoint Name: inhibition (%)
Enter your answer as a number in %; do not include the unit.

In the examples that follow, each entry is paired with its recorded inhibition.
Which inhibition is listed for CCNc1nc(C)cc(COC)c1C#N ?
1.4

Which inhibition is listed for CCOC(=O)c1c(O)c2c(n(Cc3ccco3)c1=O)CCCC2 ?
-0.075

Which inhibition is listed for Cc1cccnc1NC(=O)c1c(O)c2ccccc2n(C)c1=O ?
-0.005

Others:
Which inhibition is listed for CSc1nc2c(c(=O)n1-c1ccc(F)cc1)SCC2 ?
2.19

Which inhibition is listed for Cc1cccc(-n2ncc3c(NCc4ccccc4)ncnc32)c1 ?
1.38

Which inhibition is listed for CC(C)Cc1cc(-c2ccco2)c(C#N)c(N)n1 ?
3.23

###

# Protocol Notes: growth suppression of yeast trafficking mutant, preliminary HTS, modulators of trafficking downstream of Golgi apparatus project, 1536-format plate, OD 615 nm (AID 637)
# Assay Conditions: yeast transport mutant growth, absorbance 615 nm, 18 h; stronger effect = higher value
The source made the active and inactive calls. No stated cut-off is given here; in the data, active means inhibition above about 30%; inactive means the rest.
Measured inhibition, listed per entry.

Which inhibition is listed for Cc1nc2c3cnn(-c4ccccc4)c3ncn2n1 ?
1.64% (inactive)

Which inhibition is listed for Cc1cc(C)n(-c2nc3nonc3nc2-n2nc(C)cc2C)n1 ?
-3.17% (inactive)

Which inhibition is listed for O=C(CCCN1C(=O)c2ccccc2C1=O)Oc1ccc(F)cc1 ?
1.29% (inactive)

Which inhibition is listed for Cn1c(=O)c2c(ncn2CC(=O)OCC(=O)NC2CCCc3ccccc32)n(C)c1=O (stereo unspecified) ?
1.59% (inactive)

Which inhibition is listed for c1cncc(-c2nnc3n2N=C(c2cccs2)CS3)c1 ?
-0.83% (inactive)

Which inhibition is listed for O=C(Cn1nnc(-c2cccs2)n1)OC1CCCCC1 ?
-3.39% (inactive)

###

# Protocol Notes: HUVEC growth inhibition – cell-based, human, primary screen (AID 575);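 further: 100% = median of untreated cell wells with 0.1% DMSO on each plate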
# Assay Conditions: HUVEC proliferation, CellTiter-Glo luminescence, 72 h; at 10 µM; stronger effect = lower value
Calls of active or inactive are those of the source.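 How the source made its calls: active means viability at or below 30% in both replicate assays; inconclusive means viability at or below 30% in just one of the two assays; inactive means the rest.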
Endpoint Name: viability

Which viability is listed for Cn1c(-c2ccccc2)cc(=O)c2ccccc21 ?
102% (inactive)

Which viability is listed for Cc1cc(C)c2c(C)nn(C3CCCCC3)c2n1 ?
80.8% (inactive)

Which viability is listed for O=C(NCCC1=CCCCC1)C1CC(=O)N(C2CCCCCC2)C1 (stereo not drawn) ?
104% (inactive)

Others:
Which viability is listed for Cn1c(-n2c(-c3ccco3)nc3ccccc3c2=O)nc2ccccc21 ?
89.9% (inactive)

Which viability is listed for COc1ccc2c(c1)Sc1ccccc1N2CCN(C)C ?
59.1% (inactive)

Which viability is listed for O=C(CCOc1ccccc1)NCc1ccccc1 ?
89.9% (inactive)

Which viability is listed for c1cncc(-c2nnc3sc(-c4ccco4)nn23)c1 ?
99.5% (inactive)

Which viability is listed for CC(=O)N(C(C)=O)c1c(C#N)c(C)n(-c2ccccc2)c1C(=O)c1ccccc1 ?
78.4% (inactive)

Which viability is listed for CCOC(=O)N1CCN(C(=O)CSc2nnc(-c3cc(OC)cc(OC)c3)o2)CC1 ?
92.7% (inactive)

Which viability is listed for CN(C)c1ccc(-c2nn3c(-c4ccc(Cl)cc4Cl)nnc3s2)cc1 ?
46.7% (inactive)

Which viability is listed for CC(C)[N+](C)(CCOC(=O)C1c2ccccc2Oc2ccccc21)C(C)C ?
100% (inactive)

Which viability is listed for O=c1c[n+]([O-])c2ccccc2n1OCc1c(F)cccc1F ?
93.4% (inactive)

###

Measured viability, listed per entry.
# Protocol Notes: growth suppression of PTEN-deleted HCT116, pilot screen, cell-based, HCT116 clonal line, CellTiter-Glo (AID 824);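 further: 0% = 20 µM Hyamine control and 100% = vehicle cell control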
# Assay Conditions: 60 h, at 10 µM, stronger effect = lower value
Results filed as inconclusive are left out.
Enter your answer as a number in %; do not include the unit.

In the examples that follow, each entry is paired with its recorded viability.
Which viability is listed for COc1cc(C(=O)N2CCN(C(=O)C(Cc3cc(C)ccc3C)NC(C)=O)CC2)cc(OC)c1OC (stereo unspecified) ?
88.2

Which viability is listed for COC(=O)Cn1c(=NC(=O)CSC(C)=O)sc2ccccc21 ?
101

Which viability is listed for CC(=O)NC(C)c1nc2ccccc2n1Cc1ccccc1F (stereo unspecified) ?
93.8

Which viability is listed for O=c1[nH]c(SCc2ccccc2Cl)nc2c1CCC2 ?
96.9

Which viability is listed for COc1ccc(OC)c(NC(=O)C2CCCN(S(=O)(=O)c3cccc4cccnc34)C2)c1 (stereo unspecified) ?
80.1

Others:
Which viability is listed for CCCC(c1c(C)n(C)n(-c2ccccc2)c1=O)c1c(C)n(C)n(-c2ccccc2)c1=O ?
103

Which viability is listed for COc1ccc(Cl)cc1N1C(=O)C2CCCN2C1c1ccc(F)c(F)c1 (stereo unspecified) ?
92.7

Which viability is listed for CCCCNC(=O)CS(=O)Cc1nc(-c2cccc(C)c2)oc1C (stereo unspecified) ?
98.1

Which viability is listed for O=C1C(=O)N(CCCn2ccnc2)C(c2cccnc2)/C1=C(/O)c1ccc(Br)cc1 (stereo unspecified) ?
104

Which viability is listed for O=C(NC1CCCc2ccccc21)C1CCN(C(=O)c2sccc2-n2cccc2)CC1 (stereo unspecified) ?
78.7

Which viability is listed for Cc1cc(C)n2nc(Nc3ccccc3)cc2n1 ?
89.7
